Values were extracted from paper PMC7753147.

tested on: gephE; experiment: µSPOT peptide microarray binding assay with recombinant gephE; conditions: µSPOT peptide microarray, GlyRβ full positional scan, recombinant gephE; intensity normalised to wild-type sequence DLRSNDFSIVGSLPR (=1)
ASSAY_METRIC: gephE Binding Intensity [norm.] (norm.)

# POLYMER_SEQUENCE, UNIT_ANNOTATION, QUANTITATIVE_READOUT
data = [
    ("DLRSNEFSIVGSLPR [GlyRβ_Full_Positional_Scan_111]", "norm.", 0.96),
    ("DLRSNDFSWVGSLPR [GlyRβ_Full_Positional_Scan_168, GlyR β 414-428 variant I422W]", "norm.", 0.59),
    ("DLRSNDFSIVESLPR [GlyRβ_Full_Positional_Scan_211, GlyR β 414-428 variant G424E]", "norm.", 0.23),
    ("DLRSNDNSIVGSLPR [GlyRβ_Full_Positional_Scan_139, GlyR β 414-428 variant F420N]", "norm.", 0.52),
    ("QLRSNDFSIVGSLPR [GlyRβ_Full_Positional_Scan_020]", "norm.", 1.19),
    ("DLRKNDFSIVGSLPR [GlyRβ_Full_Positional_Scan_074]", "norm.", 0.92),
    ("DLRTNDFSIVGSLPR [GlyRβ_Full_Positional_Scan_076]", "norm.", 0.93),
    ("DLRSNDFVIVGSLPR [GlyRβ_Full_Positional_Scan_146, GlyR β 414-428 variant S421V]", "norm.", 0.56),
]

###

tested on: gephE; test: µSPOT peptide microarray binding assay with recombinant gephE; settings: µSPOT full positional scan of GlyRβ 15-mer DLRSNDFSIVGSLPR; intensity normalised to wild-type sequence (= 1)
ASSAY_METRIC: gephE Binding Intensity [norm.]

# POLYMER_SEQUENCE, ASSAY_METRIC, RESULT
rows = [
    ("DLRSNDFSIVGSLFR [GlyRβ_Full_Positional_Scan_267]", "gephE Binding Intensity [norm.]", "0.71 norm."),
    ("DLRSNDFSIVGSLRR [GlyRβ_Full_Positional_Scan_272]", "gephE Binding Intensity [norm.]", "0.59 norm."),
    ("DLRSNDFSIVGRLPR [GlyRβ_Full_Positional_Scan_232]", "gephE Binding Intensity [norm.]", "0.87 norm."),
    ("DLRSNDFSIVGSLPW [GlyRβ_Full_Positional_Scan_288]", "gephE Binding Intensity [norm.]", "0.89 norm."),
    ("DLRSNDFSIVGALPR [GlyRβ_Full_Positional_Scan_221]", "gephE Binding Intensity [norm.]", "0.77 norm."),
    ("DLRSNDFSIVGSLNR [GlyRβ_Full_Positional_Scan_279]", "gephE Binding Intensity [norm.]", "0.71 norm."),
    ("DLRSNDFSIVGSEPR [GlyRβ_Full_Positional_Scan_251]", "gephE Binding Intensity [norm.]", "0.8 norm."),
    ("DLRSNDFSIVGSLWR [GlyRβ_Full_Positional_Scan_268]", "gephE Binding Intensity [norm.]", "0.61 norm."),
    ("DLRSNDFSIVGSLPK [GlyRβ_Full_Positional_Scan_294]", "gephE Binding Intensity [norm.]", "0.92 norm."),
    ("DLRSNDFSIVQSLPR [GlyRβ_Full_Positional_Scan_220, GlyR β 414-428 variant G424Q]", "gephE Binding Intensity [norm.]", "0.43 norm."),
]

###

test system: gephE; test: µSPOT peptide microarray binding assay with recombinant gephE; conditions: µSPOT peptide microarray, GlyRβ full positional scan, recombinant gephE; intensity normalised to wild-type sequence DLRSNDFSIVGSLPR (=1)
ASSAY_METRIC: gephE Binding Intensity [norm.] (norm.)

# POLYMER_SEQUENCE, ASSAY_METRIC, QUANTITATIVE_READOUT
records = [
    ("DLRSEDFSIVGSLPR [GlyRβ_Full_Positional_Scan_091]", "gephE Binding Intensity [norm.]", 0.96),
    ("DLRSNQFSIVGSLPR [GlyRβ_Full_Positional_Scan_120]", "gephE Binding Intensity [norm.]", 0.95),
    ("DLGSNDFSIVGSLPR [GlyRβ_Full_Positional_Scan_042]", "gephE Binding Intensity [norm.]", 0.93),
    ("DLRSNDFKIVGSLPR [GlyRβ_Full_Positional_Scan_154, GlyR β 414-428 variant S421K]", "gephE Binding Intensity [norm.]", 0.65),
    ("DLPSNDFSIVGSLPR [GlyRβ_Full_Positional_Scan_045]", "gephE Binding Intensity [norm.]", 0.93),
]

###

tested on: FL-geph; assay: µSPOT peptide microarray binding assay with full-length geph; settings: µSPOT peptide microarray, GlyRβ full positional scan, intensity normalised to wild-type sequence DLRSNDFSIVGSLPR (=1)

# POLYMER_SEQUENCE, Fl-geph Binding Intensity [norm.] [norm.]
records = [
    ("DLTSNDFSIVGSLPR [GlyRβ_Full_Positional_Scan_056]", 1.18),
    ("ELRSNDFSIVGSLPR [GlyRβ_Full_Positional_Scan_011]", 0.94),
    ("DLRSNDFSAVGSLPR [GlyRβ_Full_Positional_Scan_161, GlyR β 414-428 variant I422A]", 0.81),
    ("DLRSNDFSKVGSLPR [GlyRβ_Full_Positional_Scan_174, GlyR β 414-428 variant I422K]", 0.58),
    ("DLRSWDFSIVGSLPR [GlyRβ_Full_Positional_Scan_088]", 0.66),
    ("DLRSNDFSIVPSLPR [GlyRβ_Full_Positional_Scan_205, GlyR β 414-428 variant G424P]", 0.5),
    ("DLRSDDFSIVGSLPR [GlyRβ_Full_Positional_Scan_090]", 0.94),
    ("DHRSNDFSIVGSLPR [GlyRβ_Full_Positional_Scan_033]", 0.95),
    ("ALRSNDFSIVGSLPR [GlyRβ_Full_Positional_Scan_001]", 1.11),
    ("DLRSNPFSIVGSLPR [GlyRβ_Full_Positional_Scan_105]", 0.85),
    ("DLRSLDFSIVGSLPR [GlyRβ_Full_Positional_Scan_084]", 0.86),
    ("DLRSNDISIVGSLPR [GlyRβ_Full_Positional_Scan_123, GlyR β 414-428 variant F420I]", 0.66),
    ("DLRSNDFSIEGSLPR [GlyRβ_Full_Positional_Scan_191, GlyR β 414-428 variant V423E]", 0.69),
    ("DLRNNDFSIVGSLPR [GlyRβ_Full_Positional_Scan_079]", 0.99),
    ("DLHSNDFSIVGSLPR [GlyRβ_Full_Positional_Scan_053]", 1.21),
    ("DLRSNQFSIVGSLPR [GlyRβ_Full_Positional_Scan_120]", 0.78),
    ("DLYSNDFSIVGSLPR [GlyRβ_Full_Positional_Scan_049]", 1.03),
    ("DLRSEDFSIVGSLPR [GlyRβ_Full_Positional_Scan_091]", 1),
    ("DLRWNDFSIVGSLPR [GlyRβ_Full_Positional_Scan_068]", 0.81),
]

###

system: native geph; test: µSPOT peptide microarray binding assay with native geph from mouse brain lysate; settings: µSPOT peptide microarray, GlyRβ full positional scan, native geph from mouse brain lysate; intensity normalised to wild-type sequence DLRSNDFSIVGSLPR (=1)
Binned Native geph Binding Intensity [norm.]; ranges: group A (below 0.3 norm.), group B (0.3 norm. to below 0.9 norm.), group C (0.9 norm. or more)

# POLYMER_SEQUENCE, EXPERIMENTAL_TARGET, GROUP
measured = [
    ("DLRSNDFSSVGSLPR [GlyRβ_Full_Positional_Scan_175, GlyR β 414-428 variant I422S]", "native geph", "group A"),
    ("KLRSNDFSIVGSLPR [GlyRβ_Full_Positional_Scan_014]", "native geph", "group B"),
    ("DLRSNSFSIVGSLPR [GlyRβ_Full_Positional_Scan_115]", "native geph", "group B"),
    ("DLRSNDGSIVGSLPR [GlyRβ_Full_Positional_Scan_122, GlyR β 414-428 variant F420G]", "native geph", "group B"),
    ("DLRSNDFEIVGSLPR [GlyRβ_Full_Positional_Scan_151, GlyR β 414-428 variant S421E]", "native geph", "group A"),
    ("DLRSNDFSIYGSLPR [GlyRβ_Full_Positional_Scan_189, GlyR β 414-428 variant V423Y]", "native geph", "group B"),
    ("DLRSNDFSGVGSLPR [GlyRβ_Full_Positional_Scan_162, GlyR β 414-428 variant I422G]", "native geph", "group B"),
    ("GLRSNDFSIVGSLPR [GlyRβ_Full_Positional_Scan_002]", "native geph", "group B"),
    ("DLRSPDFSIVGSLPR [GlyRβ_Full_Positional_Scan_085]", "native geph", "group B"),
    ("DLRSIDFSIVGSLPR [GlyRβ_Full_Positional_Scan_083]", "native geph", "group B"),
    ("DLRFNDFSIVGSLPR [GlyRβ_Full_Positional_Scan_067]", "native geph", "group C"),
    ("DLRTNDFSIVGSLPR [GlyRβ_Full_Positional_Scan_076]", "native geph", "group C"),
    ("DLRSNDFSIDGSLPR [GlyRβ_Full_Positional_Scan_190, GlyR β 414-428 variant V423D]", "native geph", "group A"),
    ("DLRWNDFSIVGSLPR [GlyRβ_Full_Positional_Scan_068]", "native geph", "group C"),
    ("ILRSNDFSIVGSLPR [GlyRβ_Full_Positional_Scan_003]", "native geph", "group B"),
    ("DLTSNDFSIVGSLPR [GlyRβ_Full_Positional_Scan_056]", "native geph", "group C"),
    ("DLRSNDFDIVGSLPR [GlyRβ_Full_Positional_Scan_150, GlyR β 414-428 variant S421D]", "native geph", "group A"),
]
